molecules and their reported IC50
# study.system: CYP11A1 (Homo sapiens)
# Construct: human H295R adrenocortical carcinoma cell line was used as source of enzyme; endogenous in cells
# Sequence (P05108 40-521): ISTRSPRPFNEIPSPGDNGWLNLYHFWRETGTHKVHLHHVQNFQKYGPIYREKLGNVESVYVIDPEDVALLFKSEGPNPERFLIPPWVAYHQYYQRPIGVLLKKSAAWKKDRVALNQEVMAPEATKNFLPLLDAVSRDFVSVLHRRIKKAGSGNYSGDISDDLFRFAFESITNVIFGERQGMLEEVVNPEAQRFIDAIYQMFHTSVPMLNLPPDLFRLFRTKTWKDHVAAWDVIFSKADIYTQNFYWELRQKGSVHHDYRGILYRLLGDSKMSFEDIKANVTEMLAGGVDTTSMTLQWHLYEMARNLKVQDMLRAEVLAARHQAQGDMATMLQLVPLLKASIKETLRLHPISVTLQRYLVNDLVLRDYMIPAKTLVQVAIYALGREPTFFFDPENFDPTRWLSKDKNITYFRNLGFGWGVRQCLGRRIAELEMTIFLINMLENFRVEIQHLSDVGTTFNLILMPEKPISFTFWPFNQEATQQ
# experiment.notes: CYP11A1 inhibition: modified isocaproic acid release assay (IARA) in H295R cells
# cond: human H295R adrenocortical carcinoma cells treated three days, 3 nM [24,25-3H]-labelled cholesterol, 1% DMSO, 10 concentrations in duplicates; read-out: IC50 of the test compounds on CYP11A1 inhibition
attribute.measured: IC50

O=C(c1ccc(COc2coc(CN3Cc4ccccc4C3)cc2=O)cc1)N1CC(F)(F)C1 : 150 to 300 nM
Cc1ccc2c(c1)CN(Cc1cc(=O)c(OCc3ccc(S(C)(=O)=O)cc3)co1)C2 : 150 to 300 nM
CNC(=O)c1ccc(COc2coc(CN3Cc4ccccc4C3)cc2=O)cc1 : 301 to 2000 nM
O=c1cc(CN2Cc3ccccc3C2)occ1OCCCc1ccncc1 : 150 to 300 nM
CS(=N)(=O)c1ccc(COc2coc(CN3Cc4ccc(F)cc4C3)cc2=O)cc1 (stereo not drawn) : 150 to 300 nM
O=C(COc1coc(CN2Cc3ccccc3C2)cc1=O)N1CCN(S(=O)(=O)c2ccccc2)CC1 : 301 to 2000 nM
O=c1cc(CN2Cc3ccccc3C2)occ1OCc1ccc(C2(O)COC2)cc1 : < 150 nM
CS(=O)(=O)N1CCC(COc2coc(CN3Cc4ccc(F)c(F)c4C3)cc2=O)CC1 : 301 to 2000 nM
CCCC(=O)N1CCC(COc2coc(CN3Cc4ccccc4C3)cc2=O)CC1 : < 150 nM
CNC(=O)c1ccc(COc2coc(CN3CCc4ccccc4C3)cc2=O)cc1 : 301 to 2000 nM
N#Cc1ccc(COc2coc(CN3Cc4ccc(Br)cc4C3)cc2=O)cc1 : < 150 nM
CC(=O)c1ccc(COc2coc(CN3Cc4ccccc4C3)cc2=O)cc1 : 150 to 300 nM
CCCCNC(=O)c1ccc(COc2coc(CN3Cc4ccccc4C3)cc2=O)cc1 : 150 to 300 nM
CS(=O)(=O)c1ccc(COc2coc(CN3Cc4ccccc4C3)cc2=O)cc1 : 150 to 300 nM
CN(C)C(=O)C1CCC(COc2coc(CN3Cc4ccccc4C3)cc2=O)CC1 (stereo not drawn) : < 150 nM
